# targetOfAssay: HA of H1N1 A/Puerto Rico/8/34-MA (influenza A virus)
# protocolNotes: cell-based or functional assay
reportedEndpoint: VNA titer

Given SD1070 (VHH) VHH: EVQLVESGGGLVQAGGSLRISCAASGRTFSIYSMGWFRQAPGKEREFVATIGWNSGRTFYADSMKERFTISADNARNTLYLQMNSLKFEDTAVYYCAAAKGPLRLSSQADYWGQGTQVTVSS , state its recorded VNA titer.
> 1000 nM

Next binder up: SD1045 (VHH) VHH: EVQLVESGGGLVQAGGSLRLSCAASGSSFSINVMGWYRQAPGKQREMVATITYGGSTNYVDSVKGRFTISRDNAKNTVYLQMNSLKPEDTAVYYCNSRLAQINYWGQGTQVTVSS
206 nM

Same question for SD1069 (VHH) VHH: EVQLVESGGGLVQAGDSLRLSCAASGPTFGMSAMGWFRQAPGKEREFVAAISGLGNPNYSDDVKGRFTISRENGRNTVYLQMNSLKPEDTAVYYCAQRKVYHVQGGDRPQAYDYWGQGTQVTVSS please.
12.8 nM

Here is the next binder: SD1073 (VHH) VHH: EVQLVESGGGLVQAGGSLRLSCAASGSAFSIAAMGWYRQAPGKQRELVATITTGGSTNYADSVKGRFTISRDNSKNTAYLQMNSLKPEDTAVYYCTAKSVVAETFGDLYNYWGQGTQVTVSS
89.6 nM
